- experimentDescription: NCI Yeast Anticancer Drug Screen. Data for the mlh1 rad18 strain (AID 175)
- recordedConditions: S. cerevisiae mlh1 rad18 strain growth inhibition; at 50.0 µM (retest, dose inferred, filed as 5.0)
About 79,000 compounds went through this panel and 15% of them were active in at least one assay; those are over-represented in the sample as a whole. Calls of active or inactive are those of the source. No stated cut-off is given here; in the data, active means growth inhibition above about 70%; inactive means the rest.
Bench note: report the call from T = active, F = inactive

Reference set, count: 3
molecule: CN(C)c1cccc(F)c1C(=O)NC(=O)Nc1ccc(Cl)cc1
cat: F
//
molecule: CC(C)CC(CC(C)C)OP(=O)(O)OC(CC(C)C)CC(C)C
cat: T
//
molecule: Cc1[nH]nc(-c2ccon2)c1N=O
cat: T

Could you check what this test reported for `COc1ccc(-n2c(=O)c3[nH]c(=S)[nH]c3n(-c3ccc(OC)cc3)c2=S)cc1` ? F

Request: `CCCCNCCCCCCCCCCCl` T

Request: N#CC1C=C(Cl)c2ccc(Cl)cc2N1C(=O)c1ccccc1 (configuration not stated) T

Request: `CCN(CC)c1ccc(SC#N)cc1` T

Request: `CCS(=O)(=O)/C=C/c1ccc2ccccc2n1` F

Request: `CC(C)(N=Nc1ccc([N+](=O)[O-])cc1)[N+](=O)[O-]` T

Request: `CCOC(=O)/C(=C/c1ccc2ccccc2c1)P(=O)(OCC)OCC` F

Request: CCCCCCCCCCCC1C(C#N)C(=O)NC(=O)C1C#N (configuration not stated) T

Request: `CC(C)CNc1cc(Cl)nc(N)n1` F

====

- experimentDescription: NCI Yeast Anticancer Drug Screen. Data for the mec2-1 strain (AID 157)
- recordedConditions: S. cerevisiae mec2-1 strain, at 5.0 µM (retest, dose inferred, filed as 0.5), stronger effect = higher value
Compounds without any hit were thinned out: in the full panel of roughly 79,000, 15% have a hit.
Reported growth inhibition by item:
Report as a plain number; the unit % is understood.

compound: CCN(C(=O)O)c1ccc(/C=C/c2ccnc3ccccc23)cc1
growth inhibition / %: -16

I have this compound here, `Oc1c(Cl)cc(Cl)c2cccnc12` , and I need its recorded growth inhibition. 31

Request: `O=C(O)[C@@H]1CCCC[C@@H]1C(=O)N(C1CCCCC1)C1CCCCC1` -15

Request: C[C-](O)O.O/C(=C\[C-](O)c1ccccc1)c1ccccc1.O/C(=C\[C-](O)c1ccccc1)c1ccccc1.[Nd+3] (centres undefined) 36

Request: `c1ccc(/C(=N\Nc2nc3ccccc3s2)c2ccccn2)cc1` 9

Request: `COC(=O)c1n[nH]c(C)c1N=NN1CCC(C(N)=O)CC1` -8

Request: `O=C(N=c1sc2ccccc2s1)N=c1sc2ccccc2s1` 35

Request: `S=c1[nH]c2ccc(Cl)cc2s1` -2

====

- experimentDescription: NCI Yeast Anticancer Drug Screen. Data for the mlh1 rad18 strain (AID 175)
- recordedConditions: S. cerevisiae mlh1 rad18 strain growth inhibition; at 5.0 µM (retest, dose inferred, filed as 0.5)
- Method: Growth inhibition of yeast strains with defined genetic alterations is measured as a screen for potential anti-cancer activity. Selected strains with alterations in DNA damage repair or cell cycle control were exposed to compounds and growth inhibition was measured relative to vehicle treated controls. The strain used in this assay is mlh1 rad18
About 79,000 compounds went through this panel and 15% of them were active in at least one assay; those are over-represented in the sample as a whole. Activity calls are given as the source filed them. Cut-off read from the data, not from the text of the source: active = growth inhibition above about 70%; inactive = the rest.
Bench note: report the call from 1 (active), 0 (inactive)

Reference set, count: 5
compound: c1ccc(N/N=C(/CC/C(=N\Nc2ccccc2)c2ccccc2)c2ccccc2)cc1
cat: 0

compound: CC1CC(C)CC(NC2=NCCO2)C1 (centres undefined)
cat: 0

compound: CS(=O)(=O)OC1COC2C(I)COC12 (centres undefined)
cat: 0

compound: Cc1[nH]c2ccccc2c1C(c1ccccc1)c1c(C)[nH]c2ccccc12
cat: 0

compound: COc1cc2c(c(OC)c1OC)-c1ccc(SC)c(=O)cc1[C@@H](NC1OC(COC(C)=O)C(OC(C)=O)C(OC(C)=O)C1OC(C)=O)CC2 (some centres undefined)
cat: 0

Could you check what this test reported for `O=C1N[C@H]2[C@H](CS[C@H]2CCCCC(=O)N(CCP(c2ccccc2)c2ccccc2)CCP(c2ccccc2)c2ccccc2)N1` ? 0

Request: `C/C(=N/O)c1cc([N+](=O)[O-])c(O)cc1O` 0

Request: `c1ccc(CCc2c[nH]c3ccccc23)cc1` 0

Request: `CC(=O)c1ccc(OCc2ccccc2)cc1` 0

Request: `N=C(N)c1ccc(N=Nc2cc(/C=C/c3ccccc3)ccc2O)cc1` 0
